# System: Staphylococcus aureus (Sa)
# ASSAY EXPLANATION: Minimum inhibitory concentration (MIC), bacteria in nutrient agar
# Type: cell-based, Staphylococcus aureus ATCC 6538
# ASSAY CONDITIONS: nutrient agar pH 8.2, 30° C., 48 hours

STRUCTURE AS SMILES	ASSAYED TARGET	MIC [µg/mL]
CC(C)(C)c1ccc(-n2nnnc2SCSC#N)cc1	Staphylococcus aureus (Sa)	50
COc1ccc(-n2nnnc2SCSC#N)cc1	Staphylococcus aureus (Sa)	100
N#CSCSc1nnnn1-c1ccc(Br)cc1	Staphylococcus aureus (Sa)	500
N#CSCSc1nnnn1-c1cccc(Cl)c1	Staphylococcus aureus (Sa)	100
N#CSCSc1nnnn1-c1ccc([N+](=O)[O-])cc1	Staphylococcus aureus (Sa)	50
N#CSCSc1nnnn1-c1ccccc1	Staphylococcus aureus (Sa)	50
